Test system: NOMO1
Assay: cell viability relative to DMSO control; higher = less cytotoxic
Settings: RPMI 5 mM glucose + 10% dialyzed FBS; 48 h; 0.00702 µM
PROPERTY_LABEL: cell viability (%)
Answer format: numeric, % implied, no suffix.

Some compounds with recorded cell viability:
[
  {
    "COMPOUND": "CC(=O)NC(CS)C(=O)O (configuration not stated)",
    "PROPERTY_LABEL": "cell viability",
    "NUMBER": 86.7
  },
  {
    "COMPOUND": "OC(=O)\\C1=C\\N(C2=CC=C(F)C=C2)C3=C(C=C(F)C(=C3)N4CCNCC4)C1=O",
    "PROPERTY_LABEL": "cell viability",
    "NUMBER": 116
  },
  {
    "COMPOUND": "O=C1Nc2ccc(Cl)cc2[C@@](C#CC2CC2)(C(F)(F)F)O1",
    "PROPERTY_LABEL": "cell viability",
    "NUMBER": 92.3
  },
  {
    "COMPOUND": "C[C@@H]1COCCN1C\\2=C\\C(=O)N\\3CC[C@H](N(CC4=CN=CC(=C4)Cl)C3=N2)C(F)(F)F",
    "PROPERTY_LABEL": "cell viability",
    "NUMBER": 91.1
  },
  {
    "COMPOUND": "CC(C)C[C@H](NC(=O)[C@@H](NC(=O)c1cccc(-c2ccccc2)n1)[C@@H](C)O)B(O)O",
    "PROPERTY_LABEL": "cell viability",
    "NUMBER": 126
  }
]

So what's the measured cell viability for this one? O=C(Nc1cccc(Nc2ncc(Br)c(NCCc3cnc[nH]3)n2)c1)N1CCCC1
107

So what's the measured cell viability for this one? COc1cc(O)c2c(c1)C1OC1C[C@H](O)[C@H](O)C(=O)/C=C\C[C@H](C)OC2=O (some centres not stated)
105

So what's the measured cell viability for this one? NC1=NC=C(C=C1)C2=CC=C3N=CC\4=C(N(C(=O)\C=C4)C5=CC(=CC=C5)C(F)(F)F)C3=C2
74.1

So what's the measured cell viability for this one? CC(=O)C\1=C(/C)C2=CN=C(NC3=CC=C(C=N3)N4CCNCC4)N=C2N(C5CCCC5)C1=O
111

So what's the measured cell viability for this one? CC[C@H]1/C=C\C=C/C[C@@H](C)[C@H](O)[C@@](C)(O)C(=O)[C@@H](C)[C@H](O)[C@@H](C)C(=O)[C@@H](C)[C@H](O)[C@@H](C)/C=C/C(=O)O[C@@H]2[C@H](C)[C@H](CC1)O[C@]1(CC[C@H](C)[C@H](C[C@@H](C)O)O1)[C@H]2C
92.9

So what's the measured cell viability for this one? COc1cc2c(Oc3ccc(NC(=O)C4(C(=O)Nc5ccc(F)cc5)CC4)cc3F)ccnc2cc1OCCCN1CCOCC1
84.8

So what's the measured cell viability for this one? CC(C)(C)C(=O)OCOP(=O)(COCCn1cnc2c(N)ncnc21)OCOC(=O)C(C)(C)C
91.9
